system: SF-539 CNS; experiment: NCI tumour cell line growth inhibition, 48 h
// TGI lookup, one value per entry

Compound: Cc1cc2nc(N3C(=O)/C(=C/Cc4ccco4)N=C3c3ccccc3)sc2cc1C
Measure name: TGI
Recorded result: > 100 µM
//
Compound: CC1=NC(=N)N=C(C)C1N=Nc1ccc2nc(C)[nH]c2c1 (centres undefined)
Measure name: TGI
Recorded result: > 100 µM
//
Compound: COc1ccccc1/C=C(\NC(=O)c1ccccc1)c1nc2ccc(Cl)cc2[nH]1
Measure name: TGI
Recorded result: > 100 µM

Query string: Field request: TGI | item: `[C-]#[O+].[Cl][Sn]([Cl])[Cl].[Cl][Sn]([Cl])[Cl].[Pt].c1cnc2c(c1)ccc1cccnc12`
Result string: 16.6 µM

----------
test system: MCF7 breast; assay: NCI tumour cell line growth inhibition, 48 h; in the data active = GI50 below about 0.43 µM; inactive = the rest
Pick one: active, inactive

Solved cases below.
Compound: Cn1cc(-c2ccc3ncc(-c4ccc(CC(=O)Nc5cc(C(C)(C)C)nn5C)cc4)cc3c2)cn1
Label: inactive

Compound: CN(C)CCNC(=O)Nc1ccc(N(C)c2ccnc(Nc3ccc(CS(C)(=O)=O)cc3)n2)cc1
Label: inactive

Compound: Nc1c(C(=O)Nc2ccccc2)sc2nc3c(cc12)C(=O)CCC3
Label: active

Compound: CO[C@H]1C(=O)[C@]2(C)[C@@H](OC)C[C@H]3OC[C@@]3(OC(C)=O)[C@H]2[C@H](OC(=O)c2ccccc2)[C@]2(O)C[C@H](OC(=O)[C@H](O)[C@@H](NC(=O)OC(C)(C)C)c3ccccc3)C(C)=C1C2(C)C
Label: active

Compound: O=C(Nc1ccc(-n2cc(-c3ccncc3)c(-c3ccc(O)c(Cl)c3)n2)cc1)Nc1cc(C(F)(F)F)cc(C(F)(F)F)c1
Label: inactive

Compound: CC(=O)Nc1cccc(C#Cc2cncnc2Nc2ccc(OCc3cccc(F)c3)c(Cl)c2)c1
Label: inactive

Query string: How did this test come out for Nc1ncnc2c1c(-c1ccc(Oc3ccccc3)cc1)nn2CC1SSCC1O (configuration not stated) ?
Result string: inactive

----------
system: SW-620 colon; assay: NCI tumour cell line growth inhibition, 48 h
Measure name: TGI

Compound: CC(=O)CCC1(C(=O)OCC(C)C)CCCC1=O (stereo not drawn)
Target or system: SW-620 colon
TGI: > 100 µM
--
Compound: CCOC(=O)C1C(c2ccc(Br)cc2)N(Cc2ccccc2)C(c2ccc(Br)cc2)C(C(=O)OC)S1(=O)=O (stereo not drawn)
Target or system: SW-620 colon
TGI: > 100 µM

Please turn your attention to the following entry.
Query string: What is its TGI for SW-620 colon? Entry: CCCCCCCCCCCCOCC(COP(=O)(O)OCCN=[N+]=[N-])OC(=O)CCCCCCCCCCC (stereo not drawn)
Result string: > 100 µM

----------
tested on: ACHN renal; assay: NCI tumour cell line growth inhibition, 48 h
Measure name: TGI (µM)
The response must be a number in µM with no trailing unit.

Smiles: C/C(=N\NC(=S)N1CCC1)c1ccccn1
Measure name: TGI
Recorded result: 34.6

Query string: What is its TGI for ACHN renal? Entry: `OCCN1CCN(c2nc(N3CCCC3)c3nc(Cl)c(NCc4ccccc4)nc3n2)CC1`
Result string: 20.7

----------
tested on: DU-145 prostate; assay: NCI tumour cell line growth inhibition, 48 h
Measure name: TGI (µM)
The response must be a number in µM with no trailing unit.

Query string: Field request: TGI | item: `N#CN1CC[C@H](C(=O)Nc2ncc(-c3ccccc3)s2)C1`
Result string: 2.04

Query string: Field request: TGI | item: `COC1=C(OC)C(=O)C(Cc2c(Cl)nc3sccn23)=C(C)C1=O`
Result string: 27.2

Query string: Field request: TGI | item: CCCCCCCCCCCCCCCCNc1nc(=O)n(C2OC(C)C(O)C2O)cc1F (stereo not drawn)
Result string: 36

Query string: Field request: TGI | item: `Nc1c(C(=O)Nc2ccccc2)sc2nc3c(cc12)C(=O)CCC3`
Result string: 19.9

----------
test system: UACC-62 melanoma; assay: NCI tumour cell line growth inhibition, 48 h
Measure name: TGI

A selection of reference data follows.
Compound: CC(=O)Oc1cc2c(cc1OCC(F)(F)F)[C@H]1CC[C@]3(C)[C@@H](OC(C)=O)CC[C@H]3[C@@H]1CC2=O
TGI: 42.6 µM
--
Compound: OCCNc1nc2ccccc2c2[nH]c3ccccc3c12
TGI: 6.52 µM
--
Compound: O=C(O)CCCc1ccc2c(c1)C(C(=O)O)CC2 (stereo not drawn)
TGI: > 100 µM

Query string: Field request: TGI | item: CCN1C(=O)N(CC)C2C1NC(=S)N2/N=C/C=C/c1ccccc1 (stereo not drawn)
Result string: > 100 µM

Query string: Field request: TGI | item: `S=C(Sc1ccc(Cl)cc1)Sc1ccc(Cl)cc1`
Result string: 10.6 µM

----------
// TGI lookup, one value per entry
test system: TK-10 renal; assay: NCI tumour cell line growth inhibition, 48 h

A selection of reference data follows.
Compound: CC1=NC(=N)N=C(C)C1N=Nc1ccc2nc(C)[nH]c2c1 (stereo not drawn)
Measure name: TGI
Recorded result: > 100 µM

Compound: CN1C(c2ccccc2)CC(O)CC1c1ccccc1 (stereo not drawn)
Measure name: TGI
Recorded result: > 100 µM

Compound: CC(C)N(C(=O)C12C3C4C1C1C4(C#N)C3C12C(=O)O)C(C)C (stereo not drawn)
Measure name: TGI
Recorded result: > 100 µM

Compound: O=C(/C=C\c1ccccc1)Oc1ccc(/C=C2\CCC/C(=C\c3ccc(OC(=O)/C=C\c4ccccc4)cc3)C2=O)cc1
Measure name: TGI
Recorded result: > 100 µM

Compound: COc1cccc2c(=O)oc(-c3ccccc3C)nc12
Measure name: TGI
Recorded result: > 100 µM

Compound: Cc1ccc(C(=O)Nc2ccc(Oc3cc4cnn(C)c4cc3-c3cn[nH]c3)c(F)c2)c(=O)n1-c1ccc(F)cc1
Measure name: TGI
Recorded result: 35.1 µM

Compound: OCc1ccc(-c2ccc(-c3ccc(CO)o3)o2)o1
Measure name: TGI
Recorded result: 19.8 µM

Query string: Field request: TGI | item: `N#CN1CC[C@H](C(=O)Nc2ncc(-c3ccccc3)s2)C1`
Result string: 2.99 µM

----------
system: ACHN renal; assay: NCI tumour cell line growth inhibition, 48 h
// TGI lookup, one value per entry

Compound: CC(C)=CC1C(C(=O)OCc2cc3c(cc2Cl)OCO3)C1(C)C (stereo not drawn)
TGI: > 100 µM
--
Compound: CC(C)Oc1cccc(N2C(CCc3c[nH]c4ccc(Br)cc34)=NS(=O)(=O)c3cnccc32)c1
TGI: > 100 µM

Please turn your attention to the following entry.
Query string: What is its TGI for ACHN renal? Entry: CCOC1c2nc3ccccc3nc2-c2ccccc2N1C(C)=O (stereo not drawn)
Result string: > 100 µM

----------
// TGI lookup, one value per entry
system: DU-145 prostate; experiment: NCI tumour cell line growth inhibition, 48 h

A selection of reference data follows.
Smiles: C/C(=N\NC(=S)NC(C)(C)C)c1nc2ncccc2[nH]1
TGI: > 57.5 µM

Smiles: Oc1cn(-c2ccc(Cl)cc2)nc1-c1n[nH]c(=S)n1-c1ccc(F)cc1
TGI: > 100 µM

Smiles: O=c1c2ccc(Cl)cc2oc2c(CSc3ccccc3)cccc12
TGI: > 100 µM

Please turn your attention to the following entry.
Query string: Field request: TGI | item: `Cc1ccc(C(=O)Nc2ccc(CP(=O)(O)O)cc2CP(=O)(O)O)cc1N`
Result string: > 100 µM

----------
test system: UACC-62 melanoma; experiment: NCI tumour cell line growth inhibition, 48 h
// TGI lookup, one value per entry

Compound: CCOC(=O)CNC(=O)c1[nH]cnc1/N=N/N(C)C
TGI: > 100 µM

Compound: C[C@H]1CCC/C=C/[C@@H]2C[C@H](OC3OC(CO)C(O)C(O)C3O)C[C@H]2[C@H](O)/C=C/C(=O)O1 (stereo partly drawn)
TGI: > 100 µM

Compound: COc1ccc(C2C(=O)c3ccc(OC)cc3OC2c2cccnc2)cc1 (stereo not drawn)
TGI: > 100 µM

Compound: CC(C)Oc1cccc(N2C(CCc3c[nH]c4ccc(Br)cc34)=NS(=O)(=O)c3cnccc32)c1
TGI: > 100 µM

Compound: COc1cc2c(c3c1c(=O)c1ccccc1n3C)C=C([N+](=O)[O-])C(C)(C)O2
TGI: > 100 µM

Query string: Field request: TGI | item: COCOC1CCCC[C@@]1(OCCOCCO[C@@]1(c2ccccc2)CCCC[C@H]1OCOC)c1ccccc1 (stereo partly drawn)
Result string: > 100 µM

Query string: Field request: TGI | item: `OC1=CN=C(c2ccccc2)Oc2ccccc21`
Result string: > 100 µM

Query string: Field request: TGI | item: `COc1ccc(-c2cnc(-c3ccncc3-c3cccc(OC)c3)o2)cc1`
Result string: 15.5 µM

Query string: Field request: TGI | item: `OCCN1CCN(c2nc(N3CCCC3)c3nc(Cl)c(NCc4ccccc4)nc3n2)CC1`
Result string: 9.26 µM

Query string: Field request: TGI | item: `N#Cc1c(-c2ccccc2)c(-c2ccccc2)cc2c(=O)c3ccc(Cl)cc3[nH]c12`
Result string: > 100 µM

Query string: Field request: TGI | item: `COc1cc([C@@H]2c3cc4c(cc3[C@H](SC(=N)N)[C@H]3COC(=O)[C@H]23)OCO4)cc(OC)c1OC`
Result string: > 100 µM

Query string: Field request: TGI | item: `Cc1nc2sccn2c1C(=O)NNC(N)=S`
Result string: > 100 µM

Query string: Field request: TGI | item: `COc1ccc2oc(=O)c(-c3cc4c(c(C)n3)c(=O)oc3ccc(OC)cc34)cc2c1`
Result string: > 100 µM

Query string: Field request: TGI | item: `COC(=O)[C@H](C)NC(=O)[C@H](NS(=O)(=O)c1nc2ccccc2s1)c1ccccc1`
Result string: 28.3 µM

Query string: Field request: TGI | item: [N-]=[N+]=CC(=O)C1CCN(c2ccccc2)C1=O (stereo not drawn)
Result string: > 10 µM

Query string: Field request: TGI | item: CC(=O)OC12c3ccccc3C(c3ccccc31)C1C(=O)N(N=C(C)C)C(=O)C12 (stereo not drawn)
Result string: > 100 µM

Query string: Field request: TGI | item: `O=C(Nc1ccc(-n2cc(-c3ccncc3)c(-c3ccc(O)c(Cl)c3)n2)cc1)Nc1cc(C(F)(F)F)cc(C(F)(F)F)c1`
Result string: 10.6 µM

Query string: Field request: TGI | item: CC(C)C(NCc1c2ccccc2[n+](C)c2ccccc12)C(=O)O (stereo not drawn)
Result string: 18.6 µM
